# methodNotes: Static contact angle (wettability) of wax-coated surfaces, Attension Theta tensiometer
# Format: physicochemical
# Design: unit not given here
# experimentalConditions: thermally-evaporated wax on Silicon substrate; liquid Glycerol
quantityKind: C.A. Glycerol

Recorded results for 2 molecules are shown here.
- structureNotation: "CCCCCCCCCCCCCCCCCCCCCCCCCCCCCCCCCCCCCCCCCCCCCCCCCC"
  C.A. Glycerol: 111
- structureNotation: "FC(F)(F)C(F)(F)C(F)(F)C(F)(F)C(F)(F)C(F)(F)C(F)(F)C(F)(F)C(F)(F)C(F)(F)C(F)(F)C(F)(F)C(F)(F)C(F)(F)C(F)(F)C(F)(F)C(F)(F)C(F)(F)C(F)(F)C(F)(F)C(F)(F)C(F)(F)C(F)(F)C(F)(F)F"
  C.A. Glycerol: 172

Lab note: next molecule to report on.
Supply recorded C.A. Glycerol for CCCCCCCCCCCCCCCCCCCCCCCCCCCCCCCCCCCCCCCC here.
144

* * *

List of C.A. Glycerol values.
# methodNotes: Static contact angle (wettability) of wax-coated surfaces, Attension Theta tensiometer
# Assay type: physicochemical
# Design: unit not given here
# experimentalConditions: spray coated on Si wafer, 5 seconds×4 cycles; wax solution; liquid Glycerol
Form: value (number only, do not type unit).

Example entries begin here.
- compound: "CCCCCCCCCCCCCCCCCCCCCCCCCCCCCCCCCCCC [C36, hexatriacontane]"
  observed: 64
- compound: "FC(F)(F)C(F)(F)C(F)(F)C(F)(F)C(F)(F)C(F)(F)C(F)(F)C(F)(F)C(F)(F)C(F)(F)C(F)(F)C(F)(F)C(F)(F)C(F)(F)C(F)(F)F [C15, perfluoropentadecane]"
  observed: 110
- compound: "CCCCCCCCCCCCCCCCCCCCCCCCCCCCCCCCCCCCCCCCCCCC [C44, tetratetracontane]"
  observed: 96
- compound: "CCCCCCCCCCCCCCCCCCCCCCCCCCCCCCCCCCCCCCCC [C40, tetracontane]"
  observed: 69

Switching to the query record.
Return C.A. Glycerol for the following compound: FC(F)(F)C(F)(F)C(F)(F)C(F)(F)C(F)(F)C(F)(F)C(F)(F)C(F)(F)C(F)(F)C(F)(F)C(F)(F)C(F)(F)C(F)(F)C(F)(F)C(F)(F)C(F)(F)C(F)(F)C(F)(F)C(F)(F)C(F)(F)C(F)(F)C(F)(F)C(F)(F)C(F)(F)F [C24, perfluorotetracosane]
140

* * *

# methodNotes: Static contact angle (wettability) of wax-coated surfaces, Attension Theta tensiometer
# Assay type: physicochemical
# Parameters: unit not given here
# experimentalConditions: thermally-evaporated wax on Silicon substrate; liquid Benzyl Chloride
quantityKind: C.A. Benzyl Chloride

Solved entries (count: 5):
- compound: "FC(F)(F)C(F)(F)C(F)(F)C(F)(F)C(F)(F)C(F)(F)C(F)(F)C(F)(F)C(F)(F)C(F)(F)C(F)(F)C(F)(F)C(F)(F)C(F)(F)C(F)(F)C(F)(F)C(F)(F)C(F)(F)C(F)(F)C(F)(F)F [C20, perfluoroeicosane, reference compound]"
  observed: "Fully wetted"
- compound: "CCCCCCCCCCCCCCCCCCCCCCCCCCCCCCCCCCCCCCCCCCCCCCCCCC [C50, pentacontane]"
  observed: "Fully wetted"
- compound: "CCCCCCCCCCCCCCCCCCCCCCCCCCCCCCCCCCCCCCCC [C40, tetracontane]"
  observed: "Fully wetted"
- compound: "CCCCCCCCCCCCCCCCCCCCCCCCCCCCCCCCCCCCCCCCCCCC [C44, tetratetracontane]"
  observed: "Fully wetted"
- compound: "FC(F)(F)C(F)(F)C(F)(F)C(F)(F)C(F)(F)C(F)(F)C(F)(F)C(F)(F)C(F)(F)C(F)(F)C(F)(F)C(F)(F)C(F)(F)C(F)(F)C(F)(F)C(F)(F)C(F)(F)C(F)(F)C(F)(F)C(F)(F)C(F)(F)C(F)(F)C(F)(F)C(F)(F)F [C24, perfluorotetracosane]"
  observed: 139

Give reported C.A. Benzyl Chloride value for CCCCCCCCCCCCCCCCCCCCCCCCCCCCCCCCCCCC [C36, hexatriacontane]
Fully wetted

Values were extracted from patent US20220340764A1.
